- method_description: toxicity in mice: body weight and observations after IP administration
- Type: in vivo
- cond: female mice, 400 mg/kg IP, day 1

# smiles_str, units_symbol, body weight
data = [
    ("CC(C)c1ccc(-c2cn3nc(N4CCC(CN5CCN(CCO)CC5)CC4)sc3n2)cc1", "g", 31.1),
]

* * *

- method_description: toxicity in mice: body weight and observations after IP administration
- Type: in vivo
- cond: male mice, 100 mg/kg IP, day 8
assay_readout: body weight (g)

# smiles_str, assay_readout, reading
data = [
    ("CC(C)c1ccc(-c2cn3nc(N4CCC(CN5CCN(CCO)CC5)CC4)sc3n2)cc1", "body weight", 37.5),
]
